Tested on: G-proteins in GDP-less membranes of CHO-M2 cells
procedureText: Equilibrium [3H]GDP binding to GDP-less membranes
Parameters: species or system Chinese hamster
condition: read-out: KD for [3H]GDP from homologous competition
reportedEndpoint: pKd
By convention, pKd is the negative base-10 log of a molar concentration.

Field pKd (G-proteins in GDP-less membranes of CHO-M2 cells), entry Nc1nc2c(ncn2[C@@H]2O[C@H](COP(=O)(O)OP(=O)(O)O)[C@@H](O)[C@H]2O)c(=O)[nH]1 [GDP, guanosine diphosphate] : 5.46

* * *

targetDesc: human M2 muscarinic receptor (Homo sapiens)
Sequence (P08172 1-466): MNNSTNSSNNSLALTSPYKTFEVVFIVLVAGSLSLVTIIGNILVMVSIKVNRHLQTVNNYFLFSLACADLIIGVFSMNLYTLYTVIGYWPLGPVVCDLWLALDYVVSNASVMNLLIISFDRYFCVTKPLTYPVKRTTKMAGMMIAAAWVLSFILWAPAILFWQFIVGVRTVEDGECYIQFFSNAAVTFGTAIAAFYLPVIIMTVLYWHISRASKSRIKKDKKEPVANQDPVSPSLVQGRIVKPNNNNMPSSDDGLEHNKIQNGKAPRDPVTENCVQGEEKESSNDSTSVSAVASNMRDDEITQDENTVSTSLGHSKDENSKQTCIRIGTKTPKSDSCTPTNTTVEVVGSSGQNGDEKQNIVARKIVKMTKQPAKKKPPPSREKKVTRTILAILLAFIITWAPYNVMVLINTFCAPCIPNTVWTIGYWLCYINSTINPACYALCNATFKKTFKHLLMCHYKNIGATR
procedureText: Agonist-stimulated [35S]GTPγS binding to membranes from M2 CHO cells
Assay type: biochemical
condition: read-out: half-effective concentrations (EC50); stimulation of [35S]GTPγS binding
reportedEndpoint: pEC50
By convention, pEC50 is the negative base-10 log of a molar concentration.

Notebook: C[N+](C)(C)Cc1ccco1 [Furmethide] , pEC50 read as 5.15

* * *

targetDesc: human M2 muscarinic receptor (Homo sapiens)
procedureText: Competition of agonists with 1 nM [3H]NMS binding
condition: pKi, +1 µM GTPγS, monophasic
reportedEndpoint: Ki (nM)
State just the number; it will be interpreted in nM.

Notebook: O=C1CCCN1CC#CCN1CCCC1 [Oxotremorine] , Ki read as 550

* * *

targetDesc: Gs/olf G-proteins (Homo sapiens, UniProt P08172)
procedureText: biochemical
reportedEndpoint: Kd (nM)
State just the number; it will be interpreted in nM.

Notebook: O=C1CCCN1CC#CCN1CCCC1 [Oxotremorine] , Kd read as 10.7

* * *

targetDesc: Gi/o G-proteins (Homo sapiens, UniProt P08172)
procedureText: biochemical
reportedEndpoint: EC50 (nM)
State just the number; it will be interpreted in nM.

Notebook: O=C1CCCN1CC#CCN1CCCC1 , EC50 read as 933

* * *

targetDesc: human M2 muscarinic receptor (Homo sapiens, UniProt P08172)
procedureText: Competition of agonists with 1 nM [3H]NMS binding
condition: pKi high, Control (crude membranes)
reportedEndpoint: Ki (nM)
State just the number; it will be interpreted in nM.

Notebook: O=C1CCCN1CC#CCN1CCCC1 , Ki read as 11.7

* * *

targetDesc: human M2 muscarinic receptor (Homo sapiens)
Sequence (P08172 1-466): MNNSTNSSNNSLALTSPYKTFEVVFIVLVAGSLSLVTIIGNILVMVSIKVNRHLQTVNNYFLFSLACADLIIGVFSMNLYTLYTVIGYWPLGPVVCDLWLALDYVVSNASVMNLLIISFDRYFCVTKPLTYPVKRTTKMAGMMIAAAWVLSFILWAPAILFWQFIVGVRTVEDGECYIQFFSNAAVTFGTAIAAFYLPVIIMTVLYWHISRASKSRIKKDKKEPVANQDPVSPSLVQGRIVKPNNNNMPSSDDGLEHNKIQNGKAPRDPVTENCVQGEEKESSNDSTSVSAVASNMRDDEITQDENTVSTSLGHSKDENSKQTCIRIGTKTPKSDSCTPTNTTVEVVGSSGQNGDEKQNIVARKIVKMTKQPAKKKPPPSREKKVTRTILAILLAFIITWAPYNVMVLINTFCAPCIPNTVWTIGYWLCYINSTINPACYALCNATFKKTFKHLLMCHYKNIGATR
procedureText: Competition of agonists with 1 nM [3H]NMS binding
condition: pKi, +50 µM GDP, monophasic
reportedEndpoint: pKi
By convention, pKi is the negative base-10 log of a molar concentration.

Notebook: O=C1CCCN1CC#CCN1CCCC1 [Oxotremorine] , pKi read as 6.38

* * *

Tested on: G-proteins in GDP-less membranes of CHO-M2 cells
procedureText: Equilibrium [3H]GDP binding to GDP-less membranes
Design: species or system Chinese hamster
condition: read-out: KD, saturation binding, 0.3 to 10 µM [3H]GDP
reportedEndpoint: pKd
By convention, pKd is the negative base-10 log of a molar concentration.

Notebook: Nc1nc2c(ncn2[C@@H]2O[C@H](COP(=O)(O)OP(=O)(O)O)[C@@H](O)[C@H]2O)c(=O)[nH]1 [GDP, guanosine diphosphate] , pKd read as 5.46

* * *

targetDesc: human M2 muscarinic receptor (Homo sapiens, UniProt P08172)
procedureText: Agonist-stimulated [35S]GTPγS binding to membranes from M2 CHO cells
Format: biochemical
reportedEndpoint: EC50 (nM)
State just the number; it will be interpreted in nM.

Field EC50 (human M2 muscarinic receptor (Homo sapiens, UniProt P08172)), entry O=C1CCCN1CC#CCN1CCCC1 : 1020
